From: patent US20230310631A1

ASSAYED_TARGET: human glucagon receptor (human, UniProt P47871 26-477)
Sequence (P47871 26-477): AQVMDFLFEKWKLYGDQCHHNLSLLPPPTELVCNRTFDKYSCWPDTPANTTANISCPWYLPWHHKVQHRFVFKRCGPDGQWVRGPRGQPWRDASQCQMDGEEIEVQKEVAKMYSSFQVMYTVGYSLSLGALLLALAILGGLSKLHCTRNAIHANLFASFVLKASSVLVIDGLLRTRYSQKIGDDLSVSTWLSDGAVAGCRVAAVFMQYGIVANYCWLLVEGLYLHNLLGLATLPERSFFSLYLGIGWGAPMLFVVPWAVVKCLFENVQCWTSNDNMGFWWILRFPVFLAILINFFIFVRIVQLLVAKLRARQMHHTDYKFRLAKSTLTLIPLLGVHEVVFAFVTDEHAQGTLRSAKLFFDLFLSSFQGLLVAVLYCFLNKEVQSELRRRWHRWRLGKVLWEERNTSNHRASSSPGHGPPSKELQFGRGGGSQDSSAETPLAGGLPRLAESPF
PROTOCOL_TEXT: cell-based or functional assay
Bridge positions count the residues as written; N and C are the ends. Square brackets hold non-standard residues; d marks the D form. Ends that are not written are not given here. Aib = CC(C)(N)C(=O)O
Classify as follows. Reported In vitro Activity (relative activity to SEQ ID NO: 1, %); cAMP assay, from EC50 greater than or equal to 1%: 1 (yes). Reported In vitro Activity (relative activity to SEQ ID NO: 1, %); cAMP assay, from EC50 below: 0 (no).

>  <BINDER>
Y[Aib]QGTFTSDYSKYLDSRRACDFRLWLMNT [glucagon derivative of SEQ ID NO: 18]

>  <LABEL_CLASS>
0 (no)

$$$$
>  <BINDER>
Y[Aib]QGTFTSDCSKYLDSRRAQDFVQWLMNT [glucagon derivative of SEQ ID NO: 43]

>  <LABEL_CLASS>
1 (yes)

$$$$
>  <BINDER>
HSQGTFTSDYSKYLDSCEAQDFVQWLMNT [glucagon derivative of SEQ ID NO: 5]

>  <LABEL_CLASS>
0 (no)

$$$$
>  <BINDER>
Y[Aib]QGTFTSDYSKYLCEKRAQDFVVWLMNT [glucagon derivative of SEQ ID NO: 15]

>  <LABEL_CLASS>
1 (yes)

$$$$
>  <BINDER>
Y[Aib]QGTFVSDYSKYLDECRAKDFVQWLMNT (lactam 16-20) [glucagon derivative of SEQ ID NO: 27]

>  <LABEL_CLASS>
1 (yes)

$$$$
>  <BINDER>
Y[Aib]QGTFVSDCSKYLDERRAKDFVQWLMNT (lactam 16-20) [glucagon derivative of SEQ ID NO: 39]

>  <LABEL_CLASS>
1 (yes)

$$$$
